Measured values drawn from patent US11266650B2 for this set.

Experiment: Pharmacokinetic test in dogs (Experimental Example 14)
Format: in vivo
Conditions: dog, plasma, po, 10 mg/kg, G2, PO, dissolved in a solvent
Metric: half-life (min)

Test Smiles | Recorded Number
O[C@@H]1[C@H](O)CS[C@H]1n1cnc2c(NCc3cccc(Cl)c3)nc(Cl)nc21 | 253

----------
Assay: Pharmacokinetic test in ICR male mice (Experimental Example 13)
Assay type: in vivo
Conditions: mouse, plasma, po, P.O., 10 mg/kg
Metric: Tmax

Compound | Metric | Result
O[C@@H]1[C@H](O)CS[C@H]1n1cnc2c(NCc3cccc(Cl)c3)nc(Cl)nc21 [Example 2] | Tmax | 6.13 h

----------
Assay: Pharmacokinetic test in SD male rats (Experimental Examples 11, 12, 15)
Assay type: in vivo
Conditions: rat, plasma, po, 5 mg/kg, P.O., 5 mg/kg (Exp. 11-2)
Protocol: Intravenous administration was performed through a tube inserted into the femoral vein, and oral administration was performed using oral gavage. After the administration, the experimental animals' blood was taken at predetermined time intervals for 24 hours. Then, the blood was centrifuged to separate plasma. The plasma samples were pretreated with a suitable organic solvent, and then the concentration of the plasma samples was analyzed by LC-MS/MS. […]
Metric: Tmax (h)

Test Smiles | Metric | Unit String | Recorded Number
O[C@@H]1[C@H](O)CS[C@H]1n1cnc2c(NCc3cccc(Cl)c3)nc(Cl)nc21 | Tmax | h | 1.33
